Origin of measurements: the RepoRT retention time repository (doi:10.1016/j.foodchem.2018.09.045)

assay: RP, Thermo Scientific Syncronis C18, 100 × 2.1 mm, 1.7 µm, 0.3 mL/min, estimated dead time 0.73 min; A: water + 0.1% acetic acid; B: acetonitrile + 0.1% acetic acid; gradient (min/%B) 0/5 1/5 16/95; settings: stereoisomer not certain
Kindly apply the following: Satisfied if LC retention time is less than 10 min, Not satisfied in every other case.

Illustrative cases are given below, each with its answer.
O=c1c(OC2OC(CO)C(O)C(O)C2O)c(-c2ccc(O)c(O)c2)oc2cc(O)cc(O)c12 (stereo unspecified) : Satisfied
O=C(O)Cc1ccc(O)cc1 : Satisfied
COc1ccc(-c2oc3cc(O)cc(O)c3c(=O)c2O)cc1 : Not satisfied

Please check: LC retention time for CC1OC(OCC2OC(Oc3c(-c4ccc(O)c(O)c4)oc4cc(O)cc(O)c4c3=O)C(O)C(O)C2O)C(O)C(O)C1O (stereo unspecified) , strictly under 10 min or not?
Satisfied

Please check: LC retention time for CC1OC(OC2C(Oc3cc(O)c4c(c3)OC(c3ccc(O)cc3)CC4=O)OC(CO)C(O)C2O)C(O)C(O)C1O (stereo unspecified) , strictly under 10 min or not?
Satisfied

Please check: LC retention time for O=C1CC(c2ccccc2)Oc2cc(O)cc(O)c21 (stereo unspecified) , strictly under 10 min or not?
Not satisfied

Please check: LC retention time for COc1cc(C(=O)O)ccc1O , strictly under 10 min or not?
Satisfied

Please check: LC retention time for O=c1cc(-c2ccc(O)cc2)oc2cc(O)cc(O)c12 , strictly under 10 min or not?
Satisfied

Please check: LC retention time for O=c1c(O)c(-c2ccc(O)cc2)oc2cc(O)cc(O)c12 , strictly under 10 min or not?
Satisfied
